Values were extracted from patent US10434098B2.

Item-by-item account of Inhibition ratio (%)
Test system: human acute T cell leukemia cell Jurkat
assay.text: MTT inhibition ratio on tumor cells Jurkat
Assay type: cell-based
protocol.conditions: concentration 12.5 nM, 72 h, MTT
Provide only the numeric value, understood in %.

These recorded examples may help you get a feel for the data.
>>> endpoint_value("[2H]/C(c1ccccc1)=c1/[nH]c(=O)/c(=C(\\[2H])c2nc[nH]c2C(C)(C)C)[nH]c1=O [Compound 2]")
79.65
>>> endpoint_value("[2H]/C(c1ccccc1)=c1/[nH]c(=O)/c(=C/c2nc[nH]c2C(C)(C)C)[nH]c1=O [Compound 4]")
82.33

[Q] For [2H]/C(c1nc[nH]c1C(C)(C)C)=c1/[nH]c(=O)/c(=C/c2ccccc2)[nH]c1=O [Compound 3] , what is its reported Inhibition ratio (%)?
[A] 86.09

[Q] Field entry: [2H]/C(c1nc[nH]c1C(C)(C)C)=c1/[nH]c(=O)/c(=C(\[2H])c2c([2H])c([2H])c([2H])c([2H])c2[2H])[nH]c1=O [Compound 7]
[A] 64.49

[Q] Also, [2H]/C(c1nc[nH]c1C(C)(C)C)=c1/[nH]c(=O)/c(=C/c2c([2H])c([2H])c([2H])c([2H])c2[2H])[nH]c1=O [Compound 1] please.
[A] 86.46

[Q] Query CC(C)(C)c1[nH]cnc1/C=c1\[nH]c(=O)/c(=C/c2ccccc2)[nH]c1=O [Plinabulin, reference compound] next
[A] 79.69

[Q] Query [2H]/C(c1c([2H])c([2H])c([2H])c([2H])c1[2H])=c1/[nH]c(=O)/c(=C/c2nc[nH]c2C(C)(C)C)[nH]c1=O [Compound 6] next
[A] 73.40

[Q] Follow-up item: [2H]c1c([2H])c([2H])c(/C=c2\[nH]c(=O)/c(=C/c3nc[nH]c3C(C)(C)C)[nH]c2=O)c([2H])c1[2H] [Compound 5]
[A] 16.86
